# testDetails: Apparent permeability from basolateral to apical side in human Caco-2 cells by LC-MS/MS analysis
# Type: ADME, cell-based
Examples of molecules with documented Papp B→A follow.
readoutName: Papp B→A (nm/s)

# compoundStructure, readoutName, value
measured = [
    ("O=C(C[C@H](CCN1CCCC(F)(F)C1)NC(=O)c1cc(-c2ccccc2C(F)(F)F)n(C2CCCC2)n1)Nc1nnn[nH]1", "Papp B→A", 80),
    ("CN(CC[C@@H](CC(=O)NC1CCC1)NC(=O)c1cc(-c2ccccc2C(F)(F)F)n(C2CCCC2)n1)C1CCCCC1", "Papp B→A", 680),
    ("O=C(C[C@H](CCN1CCCCC1)NC(=O)c1cc(-c2ccccc2C(F)(F)F)n(C2CCCC2)n1)NC1CCC1", "Papp B→A", 520),
    ("O=C(C[C@H](CCN1CCCC(F)(F)C1)NC(=O)c1cc(-c2ccccc2C(F)(F)F)n(C2CCCC2)n1)NC1CCC1", "Papp B→A", 360),
    ("Cc1cnn(CC[C@@H](CC(=O)NC2CCC2)NC(=O)c2cc(-c3ccccc3C(F)(F)F)n(C3CCCC3)n2)c1", "Papp B→A", 240),
]
